Target: T1, Class I HLA molecule B*0801 in recombinant form (UniProt P01889 25-309, limits assumed)
T1 MHC heavy: not shown
Experiment: iTopia ELISA-like peptide-HLA binding
Quantity Kind: Bond results
Quick note: unit goes after the number.

The cases that follow already have their Bond results on record.
IVSSSYLAW [VK3-20 peptide No 28 IVSSSYLAW] = 2%
RLEPEDFAV [VK3-20 peptide No 78 RLEPEDFAV] = 0%
VYYCQQYGS [VK3-20 peptide No 86 VYYCQQYGS] = 0%

Recorded Bond results for YLAWYQQKP [VK3-20 peptide No 33 YLAWYQQKP] , please?
2%

Recorded Bond results for RLLIYGASS [VK3-20 peptide No 46 RLLIYGASS] , please?
0%

Recorded Bond results for SQIVSSSYL [VK3-20 peptide No 26 SQIVSSSYL] , please?
3%

Recorded Bond results for QYGSSPRTF [VK3-20 peptide No 91 QYGSSPRTF] , please?
1%

Recorded Bond results for ASQIVSSSY [VK3-20 peptide No 25 ASQIVSSSY] , please?
2%

Recorded Bond results for GQAPRLLIY [VK3-20 peptide No 42 GQAPRLLIY] , please?
2%

Data origin, for the record: patent US8512703B2
